Quick list: pEC50 per entry.
System: A/Udorn/72 (H3N2) virus
TEST SUMMARY: Plaque assay in MDCK cells: EC50 by reduction of plaque number
Type: cell-based, influenza virus
COND: MDCK
pEC50: −log10 of the molar value.

-- ask # assay system A/Udorn/72 (H3N2) virus: give pEC50 of O=C1/C(=C/c2ccco2)SC(=S)N1C1C2CC3CC(C2)CC1C3 (stereo not drawn)
-- reply 6.00 to 6.60

-- ask Supply pEC50 measured with A/Udorn/72 (H3N2) virus for COc1ccc(-c2ccc(/C=C3\SC(=S)N(C4CC5CCC4C5)C3=O)o2)cc1OCC(=O)O (stereo not drawn) .
-- reply > 7.00

-- ask Fill: pEC50 (A/Udorn/72 (H3N2) virus) for this compound COc1cc(OC)cc(-c2cc(CCCn3cc(CO)nn3)c(/C=C3\SC(=S)N(C4C5CC6CC(C5)CC4C6)C3=O)o2)c1 (stereo not drawn)
-- reply > 7.00

-- ask Quote pEC50 with test system A/Udorn/72 (H3N2) virus for COc1cc(OC)cc(-c2ccc(/C=C3\SC(=S)N(C4C5CC6CC(C5)CC4C6)C3=O)[nH]2)c1 (stereo not drawn)
-- reply > 7.00

-- ask Write down the reported pEC50 (system: A/Udorn/72 (H3N2) virus) of NCCCc1cc(-c2ccc(Cl)cc2)oc1/C=C1\SC(=S)N(C2C3CC4CC(C3)CC2C4)C1=O (stereo not drawn)
-- reply > 7.00

-- ask State the measured pEC50 (A/Udorn/72 (H3N2) virus) of COc1cc(OC)cc(-c2cc(CCCNC(=O)[C@H](CC(N)=O)NC(=O)OC(C)(C)C)c(/C=C3\SC(=S)N(C4CC5CCC4C5)C3=O)o2)c1 (stereo partly drawn)
-- reply > 7.00

----------
Test system: A/Udorn/72 (H3N2) virus
TEST SUMMARY: Plaque assay in MDCK cells: EC50 by reduction of plaque number
Type: cell-based, influenza virus
COND: MDCK
We begin with a simple list: items and their reported EC50.

Here's what some known entries look like.
COMPOUND | EC50
O=C1/C(=C/c2cn(-c3ccc([N+](=O)[O-])cc3)cn2)SC(=S)N1C1CCCCCCC1 | 250 to 1000 nM
O=C1/C(=C/c2oc(-c3ccc(F)cc3)cc2CCCCO)SC(=S)N1C1C2CC3CC(C2)CC1C3 (stereo not shown) | < 100 nM
CC(C)(C)OC(=O)N[C@@H](CC(N)=O)C(=O)N1CCN(CCCCCc2cc(-c3ccc(Cl)cc3)[nH]c2/C=C2\SC(=S)N(C3CC4CCC3C4)C2=O)CC1 (stereo partly shown) | < 100 nM
Cn1c(-c2ccc(Cl)cc2)cc(CCCO)c1/C=C1\SC(=S)N(C2C3CC4CC(C3)CC2C4)C1=O (stereo not shown) | > 1000 nM
COCOc1cc(-c2ccc(/C=C3\SC(=S)N(C4CC5CCC4C5)C3=O)o2)cc(OC)c1OC (stereo not shown) | < 100 nM
O=C1/C(=C/c2sc(-c3ccc(Cl)cc3)cc2C#CCCCO)SC(=S)N1C1C2CC3CC(C2)CC1C3 (stereo not shown) | < 100 nM

Read the next record carefully.
-- ask In one line, give reported EC50 of the entry COc1cc(O)cc(-c2cc(CCCO)c(/C=C3\SC(=S)N(C4C5CC6CC(C5)CC4C6)C3=O)o2)c1 (stereo not shown) .
-- reply < 100 nM
